Listing: EC50 of selected compounds
- study_target: hSTING (Homo sapiens, UniProt Q86WV6, G230A/H232R/R293Q/R71H)
- Construct: host or cells: THP1-Dual KO-IFNAR2 cells
- Sequence (Q86WV6 whole entry R71H/G230A/H232R/R293Q): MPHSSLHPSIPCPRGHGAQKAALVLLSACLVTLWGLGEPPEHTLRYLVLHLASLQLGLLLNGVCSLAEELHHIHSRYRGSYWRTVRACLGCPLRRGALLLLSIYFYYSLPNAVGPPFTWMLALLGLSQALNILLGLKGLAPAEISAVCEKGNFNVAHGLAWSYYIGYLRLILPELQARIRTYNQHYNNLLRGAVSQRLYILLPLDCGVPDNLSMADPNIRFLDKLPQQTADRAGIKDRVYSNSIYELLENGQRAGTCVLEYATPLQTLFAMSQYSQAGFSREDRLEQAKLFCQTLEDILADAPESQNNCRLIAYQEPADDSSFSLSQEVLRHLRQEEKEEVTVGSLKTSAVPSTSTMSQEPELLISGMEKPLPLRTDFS
- procedure_details: STING reporter assay in THP1-Dual KO-IFNAR2 cells (2'3'cGAMP stimulation, luciferase reporter)
- Format: cell-based
- run_conditions: 15 μM 2'3'cGAMP, 24 h, class symbols

[[record]]
chemical_structure = "N#Cc1cc(Nc2ccc(C(F)(F)F)c(F)c2)cc(Nc2cc(Cl)c3cc[nH]c3c2)n1"
study_target = "hSTING (Homo sapiens, UniProt Q86WV6, G230A/H232R/R293Q/R71H)"
readout_type = "EC50"
result = "40 to 200 nM"

[[record]]
chemical_structure = "COc1cc(Cl)cc(Nc2cc(C#N)nc(Nc3ccc4cc[nH]c4c3)c2)c1"
study_target = "hSTING (Homo sapiens, UniProt Q86WV6, G230A/H232R/R293Q/R71H)"
readout_type = "EC50"
result = "200 to 1000 nM"

[[record]]
chemical_structure = "N#Cc1cc(Nc2ccc(C(F)(F)F)nc2)cc(Nc2ccc3cc[nH]c3c2)n1"
study_target = "hSTING (Homo sapiens, UniProt Q86WV6, G230A/H232R/R293Q/R71H)"
readout_type = "EC50"
result = "200 to 1000 nM"

[[record]]
chemical_structure = "N#Cc1cc(N2CCN(CC(F)(F)F)CC2)cc(Nc2ccc3cc[nH]c3c2)n1"
study_target = "hSTING (Homo sapiens, UniProt Q86WV6, G230A/H232R/R293Q/R71H)"
readout_type = "EC50"
result = "5000 to 100000 nM"

[[record]]
chemical_structure = "CC(C)c1cncc(Nc2cc(C#N)nc(Nc3ccc4cc[nH]c4c3)c2)c1"
study_target = "hSTING (Homo sapiens, UniProt Q86WV6, G230A/H232R/R293Q/R71H)"
readout_type = "EC50"
result = "200 to 1000 nM"


hSTING (Homo sapiens, UniProt Q86WV6, G230A/H232R/R293Q/R71H) data for CN1CCN(c2cc(C#N)nc(Nc3cc(Cl)c4cc[nH]c4c3)c2)CC1 ; its EC50: 5000 to 100000 nM

Per the reported hSTING (Homo sapiens, UniProt Q86WV6, G230A/H232R/R293Q/R71H) data, N#Cc1cc(Nc2cncc(Cl)c2)cc(Nc2cc(Cl)c3cc[nH]c3c2)n1 has EC50 of 200 to 1000 nM

Record N#Cc1cc(Nc2cc(Cl)cc(OC(F)(F)F)c2)cc(Nc2ccc3cc[nH]c3c2)n1 has hSTING (Homo sapiens, UniProt Q86WV6, G230A/H232R/R293Q/R71H) EC50 equal to 200 to 1000 nM

Observed EC50, hSTING (Homo sapiens, UniProt Q86WV6, G230A/H232R/R293Q/R71H), N#Cc1cc(Nc2cncc(C(F)(F)F)c2)cc(Nc2cc(Cl)c3cc[nH]c3c2)n1 : 200 to 1000 nM
